Recorded pIC50, one value per entry.
# Tested on: A549 cells
# methodDescription: 5FU toxicity in A549 cells after TYMS or DHFR knockdown, SYBR Green
# Format: cell-based, human
# conditions: cells transfected with 0.1 nM siRNA; 5FU continuous for 3 days; read-out: IC50 value of 5FU following TYMS knockdown, A549
# Source text: […]
Hey, just a heads up that pIC50 is the negative log base 10 of the concentration in molar.

Recorded pIC50, per entry:
# substance, pIC50
rows = [
    ("SEQ ID NO: 4835: siRNA targeting TYMS (chain 1 ATTCAGGTAAATATGTGCATCTCCC; chain 2 AUUCAGGUAAAUAUGUGCAUCUCCC; chemistry not given here; one strand in two spellings)", 6.21),
    ("SEQ ID NO: 4833: siRNA targeting TYMS (chain 1 AGCAGAGGGAATTCATCTCTCAGGC; chain 2 AGCAGAGGGAAUUCAUCUCUCAGGC; chemistry not given here; one strand in two spellings)", 6.47),
    ("SEQ ID NO: 4834: siRNA targeting TYMS (chain 1 TGTGGATCCCTTGATAAACCACAGC; chain 2 UGUGGAUCCCUUGAUAAACCACAGC; chemistry not given here; one strand in two spellings)", 6.23),
]

# input for lookup
Give pIC50 (A549 cells) of the following substance: SEQ ID NO: 4805: non-specific control siRNA (chain 1 GGGAAATGTCTCCTCCCATTGATTT; chain 2 GGGAAAUGUCUCCUCCCAUUGAUUU; chemistry not given here; one strand in two spellings) [reference compound]
6.09

====

# Test system: target transcript mRNA in A549 cells
# methodDescription: Level of mRNA of target transcript in A549 cells by quantitative RT-PCR (Tables 12 and 13)
# Assay type: cell-based, human
# conditions: 1 nM siRNA, 24 h post-transfection
parameter: mRNA knockdown of transporter gene target transcript, 1 nM

# substance, valueMeasured
rows = [
    ("SEQ ID NO: 4976: MDR1-specific siRNA (ABCB1) (chain 1 TTAGCTTCCAACCACGTGTAAATCC; chain 2 UUAGCUUCCAACCACGUGUAAAUCC; chemistry not given here; one strand in two spellings)", "− (<50% mRNA knockdown)"),
    ("SEQ ID NO: 4977: siRNA targeting ABCB1 (MDR1) (chain 1 AAACGATGAGCTATCACAATGGTGG; chain 2 AAACGAUGAGCUAUCACAAUGGUGG; chemistry not given here; one strand in two spellings)", "− (<50% mRNA knockdown)"),
]

====

# Test system: target transcript mRNA in A549 cells
# methodDescription: Level of mRNA of target transcript in A549 cells by quantitative RT-PCR (Tables 12 and 13)
# Assay type: cell-based, human
# conditions: 0.1 nM siRNA, 24 h post-transfection
parameter: mRNA knockdown of transporter gene target transcript, 0.1 nM

# substance, tgt, valueMeasured
data = [
    ("SEQ ID NO: 4972: siRNA targeting ABCC4 (MRP4) (chain 1 AAATAGTTAAGGTCGAGGGCTGTCC; chain 2 AAAUAGUUAAGGUCGAGGGCUGUCC; chemistry not given here; one strand in two spellings)", "target transcript mRNA in A549 cells", "− (<50% mRNA knockdown)"),
    ("SEQ ID NO: 4971: siRNA targeting ABCC4 (MRP4) (chain 1 CAATAATGGTGTTCAATCTGTGTGC; chain 2 CAAUAAUGGUGUUCAAUCUGUGUGC; chemistry not given here; one strand in two spellings)", "target transcript mRNA in A549 cells", "− (<50% mRNA knockdown)"),
]

Measured values drawn from patent US20080145313A1 for this set.
